System: C. glabrata ATCC 66032
Details: strain J, echinocandin-susceptible; YPAD broth, 24 h, 30 °C, OD600 reduced by ≥75%
This listing pairs molecules with measured MIC.
Don't forget the unit after the value.

CC[C@H](C)C[C@H](C)CCCCCCCCC(=O)N[C@H]1C[C@@H](O)[C@@H](NCCN)NC(=O)[C@@H]2[C@@H](O)CCN2C(=O)[C@H]([C@H](O)CCN)NC(=O)[C@H]([C@H](O)[C@@H](O)c2ccc(OCc3cn(CCCNc4ccc([N+](=O)[O-])c5nonc45)nn3)cc2)NC(=O)[C@@H]2C[C@@H](O)CN2C(=O)[C@H]([C@@H](C)O)NC1=O [Probe 2] : 4 µg/mL
CC[C@H](C)C[C@H](C)CCCCCCCCC(=O)N[C@H]1C[C@@H](O)[C@@H](NCCN)NC(=O)[C@@H]2[C@@H](O)CCN2C(=O)[C@H]([C@H](O)CCN)NC(=O)[C@H]([C@H](O)[C@@H](O)c2ccc(O)cc2)NC(=O)[C@@H]2C[C@@H](O)CN2C(=O)[C@H]([C@@H](C)O)NC1=O [CSF, caspofungin, reference compound] : 0.063 µg/mL

# next molecule below
Look up MIC: CCCCCOc1ccc(-c2ccc(-c3ccc(C(=O)N[C@H]4C[C@@H](O)[C@@H](OCCc5cn(CCCNc6ccc([N+](=O)[O-])c7nonc67)nn5)NC(=O)[C@@H]5[C@@H](O)[C@@H](C)CN5C(=O)[C@H]([C@@H](C)O)NC(=O)[C@H]([C@H](O)[C@@H](O)c5ccc(O)cc5)NC(=O)[C@@H]5C[C@@H](O)CN5C(=O)[C@H]([C@@H](C)O)NC4=O)cc3)cc2)cc1 [Probe 4]
0.5 µg/mL

---

Tested on: C. glabrata ATCC 66032
Conditions: strain J, echinocandin-susceptible; YPAD broth, 24 h, 30 °C, OD600 reduced by ≥75%
Starred links: 1 amine or outer side, 2 acyl side, 3 side chain; linkers in the order of their positions; H or OH if unused. Positions of bridges follow the written chain, without caps; N, C: chain ends. Non-standard residues stand in square brackets, D forms with d. Residues, ends and D or L forms follow the SMILES beside them. *: point of attachment. X1 = O=C([C@@H](N[*:1])[C@H](O)[C@@H](O)c1ccc(OCc2cn(CCCNc3ccc([N+](=O)[O-])c4nonc34)nn2)cc1)[*:2]; Orn(4R-OH,5R-OCH2CH2NMe3+) = C[N+](C)(C)CCO[C@@H](N[*:3])[C@H](O)C[C@H](N[*:1])C(=O)[*:2]; pTerphenylCO(4''-OnC5H11) = CCCCCOc1ccc(-c2ccc(-c3ccc(C(=O)*)cc3)cc2)cc1; Orn(4R-OH,5R-OH) = O=C([C@H](C[C@@H](O)[C@@H](O)N[*:3])N[*:1])[*:2]; hTyr(3S-OH,4S-OH) = N[C@H](C(=O)O)[C@H](O)[C@@H](O)c1ccc(O)cc1; Pro(3S-OH,4S-Me) = C[C@H]1CN[C@H](C(=O)O)[C@H]1O; Hyp = O=C(O)[C@@H]1C[C@@H](O)CN1
This listing pairs molecules with measured MIC.
The reply should contain only the number, in µg/mL.

CCCCCOc1ccc(-c2ccc(-c3ccc(C(=O)N[C@H]4C[C@@H](O)[C@@H](OCC[N+](C)(C)C)NC(=O)[C@@H]5[C@@H](O)[C@@H](C)CN5C(=O)[C@H]([C@@H](C)O)NC(=O)[C@H]([C@H](O)[C@@H](O)c5ccc(OCc6cn(CCCNc7ccc([N+](=O)[O-])c8nonc78)nn6)cc5)NC(=O)[C@@H]5C[C@@H](O)CN5C(=O)[C@H]([C@@H](C)O)NC4=O)cc3)cc2)cc1 [Probe 6] ({pTerphenylCO(4''-OnC5H11)}-[Orn(4R-OH,5R-OCH2CH2NMe3+)]T[Hyp][X1]T[Pro(3S-OH,4S-Me)]; lactam 1-C) : 1

Look up MIC: CCCCCOc1ccc(-c2ccc(-c3ccc(C(=O)N[C@H]4C[C@@H](O)[C@@H](O)NC(=O)[C@@H]5[C@@H](O)[C@@H](C)CN5C(=O)[C@H]([C@@H](C)O)NC(=O)[C@H]([C@H](O)[C@@H](O)c5ccc(O)cc5)NC(=O)[C@@H]5C[C@@H](O)CN5C(=O)[C@H]([C@@H](C)O)NC4=O)cc3)cc2)cc1 [ANF, anidulafungin, reference compound] ({pTerphenylCO(4''-OnC5H11)}-[Orn(4R-OH,5R-OH)]T[Hyp][hTyr(3S-OH,4S-OH)]T[Pro(3S-OH,4S-Me)]; lactam 1-C)
0.016

Look up MIC: CCCCCOc1ccc(-c2ccc(-c3ccc(C(=O)N[C@H]4C[C@@H](O)[C@@H](OCC[N+](C)(C)C)NC(=O)[C@@H]5[C@@H](O)[C@@H](C)CN5C(=O)[C@H]([C@@H](C)O)NC(=O)[C@H]([C@H](O)[C@@H](O)c5ccc(O)cc5)NC(=O)[C@@H]5C[C@@H](O)CN5C(=O)[C@H]([C@@H](C)O)NC4=O)cc3)cc2)cc1 [RZF, rezafungin, reference compound] ({pTerphenylCO(4''-OnC5H11)}-[Orn(4R-OH,5R-OCH2CH2NMe3+)]T[Hyp][hTyr(3S-OH,4S-OH)]T[Pro(3S-OH,4S-Me)]; lactam 1-C)
0.031
